- Tested on: Balb/c splenic B cells
- protocol-summary: B cell activation and proliferation assay (Alamar Blue)
- Type: cell-based
- measurement-context: Mus musculus, read-out: B cell proliferation EC50
pEC50: −log10 of the molar value.
measured-attribute: pEC50

These solved cases illustrate the format of a correct answer.
[
  {
    "compound": "Cc1cccc2cc(Cn3nc(-c4cccc(O)c4)c4c(N)ncnc43)n(-c3ccccc3Cl)c(=O)c12 [Compound 96]",
    "result-value": "> 7.00"
  },
  {
    "compound": "Cc1ccccc1-n1c(Cn2nc(-c3ccc4nc(N)sc4c3)c3c(N)ncnc32)cc2cccc(C)c2c1=O [Compound 145]",
    "result-value": "> 6.00"
  },
  {
    "compound": "Cc1cccc2cc(Cn3nc(-c4ccc(F)c(O)c4)c4c(N)ncnc43)n(C(C)C)c(=O)c12 [Compound 67]",
    "result-value": "> 7.00"
  },
  {
    "compound": "CC(=O)Nc1nc2ccc(-c3nn(Cc4cc5cccc(C)c5c(=O)n4C(C)C)c4ncnc(N)c34)cc2s1 [Compound 154]",
    "result-value": "> 7.00"
  },
  {
    "compound": "Cc1cccc2cc(Cn3nc(Cl)c4c(N)ncnc43)n(-c3ccccc3F)c(=O)c12 [Compound 34]",
    "result-value": "> 6.00"
  }
]

Query block: Provide one value: measured pEC50 of Cc1ccccc1-n1c(Cn2nc(Cl)c3c(N)ncnc32)nc2scc(C)c2c1=O [Compound 249]
Result block: > 7.00

Query block: Dear colleague, please send me the reported pEC50 for Cc1ccccc1-n1c(Cn2cnc3c(N)ncnc32)cc2cccc(C)c2c1=O [Compound 5] when you can.
Result block: > 5.00

Query block: Note pEC50 for the compound shown: Cc1cccc2cc(Cn3nc(C#C[C@@H](C)O)c4c(N)ncnc43)n(-c3ccccc3F)c(=O)c12 [Compound 28]
Result block: > 6.00

###

Parameter 'readout' = pIC50; parameter 'system' = PI3K δ (Homo sapiens).
Sequence (O00329 whole entry): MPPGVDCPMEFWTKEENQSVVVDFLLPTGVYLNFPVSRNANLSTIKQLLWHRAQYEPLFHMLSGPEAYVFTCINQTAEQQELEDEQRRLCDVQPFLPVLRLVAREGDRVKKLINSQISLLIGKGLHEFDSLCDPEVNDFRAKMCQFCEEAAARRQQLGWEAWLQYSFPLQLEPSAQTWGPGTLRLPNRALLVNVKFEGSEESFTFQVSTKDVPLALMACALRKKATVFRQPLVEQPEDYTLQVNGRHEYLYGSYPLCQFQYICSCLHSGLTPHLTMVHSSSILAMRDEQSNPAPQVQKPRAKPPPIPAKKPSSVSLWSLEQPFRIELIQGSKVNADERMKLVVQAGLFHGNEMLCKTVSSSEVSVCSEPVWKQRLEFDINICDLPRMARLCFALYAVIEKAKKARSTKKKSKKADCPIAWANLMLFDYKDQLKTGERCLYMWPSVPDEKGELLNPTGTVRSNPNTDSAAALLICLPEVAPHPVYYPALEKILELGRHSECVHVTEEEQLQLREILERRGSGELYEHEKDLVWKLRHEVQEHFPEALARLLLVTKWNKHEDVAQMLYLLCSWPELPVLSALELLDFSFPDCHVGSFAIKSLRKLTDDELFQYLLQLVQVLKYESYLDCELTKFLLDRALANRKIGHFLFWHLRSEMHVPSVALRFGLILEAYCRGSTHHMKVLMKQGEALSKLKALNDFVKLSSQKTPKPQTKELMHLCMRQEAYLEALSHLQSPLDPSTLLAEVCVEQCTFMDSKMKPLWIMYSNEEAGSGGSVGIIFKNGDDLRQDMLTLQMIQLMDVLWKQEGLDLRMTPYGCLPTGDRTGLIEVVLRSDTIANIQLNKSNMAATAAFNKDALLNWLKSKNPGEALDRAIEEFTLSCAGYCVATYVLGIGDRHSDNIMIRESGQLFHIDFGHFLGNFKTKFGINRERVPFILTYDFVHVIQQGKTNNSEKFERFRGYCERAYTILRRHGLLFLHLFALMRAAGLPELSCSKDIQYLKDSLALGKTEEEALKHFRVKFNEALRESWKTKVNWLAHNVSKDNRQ
Sequence (P27986 whole entry partner): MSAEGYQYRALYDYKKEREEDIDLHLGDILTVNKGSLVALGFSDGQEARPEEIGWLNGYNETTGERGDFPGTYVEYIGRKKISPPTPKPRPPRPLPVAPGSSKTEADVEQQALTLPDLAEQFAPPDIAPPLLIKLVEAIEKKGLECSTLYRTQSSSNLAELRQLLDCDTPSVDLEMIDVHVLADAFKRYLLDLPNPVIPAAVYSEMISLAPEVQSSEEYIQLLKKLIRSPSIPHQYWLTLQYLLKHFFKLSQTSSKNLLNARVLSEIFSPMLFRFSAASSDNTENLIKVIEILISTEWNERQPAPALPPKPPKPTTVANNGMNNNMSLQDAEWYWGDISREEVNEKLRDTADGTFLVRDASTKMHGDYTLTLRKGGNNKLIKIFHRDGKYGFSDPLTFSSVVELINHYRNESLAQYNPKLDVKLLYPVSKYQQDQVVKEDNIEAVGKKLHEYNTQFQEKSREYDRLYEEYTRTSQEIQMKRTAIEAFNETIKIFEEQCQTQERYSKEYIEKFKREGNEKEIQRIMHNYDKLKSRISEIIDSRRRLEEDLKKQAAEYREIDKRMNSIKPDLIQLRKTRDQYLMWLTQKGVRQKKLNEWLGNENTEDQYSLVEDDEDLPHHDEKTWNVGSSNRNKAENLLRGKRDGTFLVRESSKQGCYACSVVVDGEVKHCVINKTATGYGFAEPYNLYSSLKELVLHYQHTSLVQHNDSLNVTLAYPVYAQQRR
pIC50: −log10 of the molar value.

[
  {
    "structure-smiles": "Cc1ccccc1-n1c(Cn2nc(-c3cccc(O)c3)c3c(N)ncnc32)nc2c(C)nn(C)c2c1=O",
    "pIC50": "> 5.00"
  },
  {
    "structure-smiles": "Cc1ccccc1-n1c(Cn2nc(-c3cccc(O)c3)c3c(N)ncnc32)nc2sc(C)c(C)c2c1=O",
    "pIC50": "> 6.00"
  },
  {
    "structure-smiles": "COc1ccccc1-n1c(Cn2nc(-c3cccc(O)c3)c3c(N)ncnc32)nc2scc(C)c2c1=O",
    "pIC50": "> 7.00"
  },
  {
    "structure-smiles": "Cc1ccccc1-n1c(Cn2nc(Br)c3c(N)ncnc32)nc2snc(C)c2c1=O",
    "pIC50": "> 6.00"
  },
  {
    "structure-smiles": "Cc1ccccc1-n1c(Cn2nc(I)c3c(N)ncnc32)nc2nccc(C)c2c1=O",
    "pIC50": "> 6.00"
  }
]

Query block: Give the reported pIC50 for this compound. `CCc1ccccc1-n1c(Cn2nc(-c3cc(O)cc(F)c3)c3c(N)ncnc32)nc2scc(C)c2c1=O`
Result block: > 7.00

Query block: State, in one line, measured pIC50 of `Cc1ccccc1-n1c(Cn2nc(C#CC3CC3)c3c(N)ncnc32)cc2nccc(C)c2c1=O`
Result block: > 6.00

Query block: For the compound `Cc1csc2nc(Cn3nc(I)c4c(N)ncnc43)n(-c3ccccc3C(C)C)c(=O)c12` , give its measured pIC50 value.
Result block: > 7.00

The reported measurements were obtained from patent US9822131B2.
